Entries annotated with measured Ki
target: T1, human µ-opioid receptor (hMOPr), human recombinant MOPr expressed in HEK-293 cells (human, UniProt P35372 1-400); test: competition with [3H]DAMGO (0.5 nM), membranes with human recombinant MOPr (HEK-293), filtration and scintillation counting
T1 construct: whole, on cells; the cAMP assay used whole HEK cells expressing hMOPr
T1 sequence (P35372 whole entry): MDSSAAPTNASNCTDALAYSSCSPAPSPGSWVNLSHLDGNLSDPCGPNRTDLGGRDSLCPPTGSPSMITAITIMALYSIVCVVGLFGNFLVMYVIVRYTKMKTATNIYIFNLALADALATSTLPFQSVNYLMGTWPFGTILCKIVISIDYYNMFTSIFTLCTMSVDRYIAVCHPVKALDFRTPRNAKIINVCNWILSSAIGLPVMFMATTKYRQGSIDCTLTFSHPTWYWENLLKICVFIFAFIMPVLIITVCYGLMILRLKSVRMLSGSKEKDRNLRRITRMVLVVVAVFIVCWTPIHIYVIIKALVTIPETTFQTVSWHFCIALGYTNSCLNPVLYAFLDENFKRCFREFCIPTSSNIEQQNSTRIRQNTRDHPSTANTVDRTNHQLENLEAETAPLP
Non-standard residues stand in square brackets, D forms with d.
Just the number in nM, nothing appended.

Solved cases below.
The measured Ki associated with YVVF (D-Val at 2; D-Phe at 4; C-terminal amide, also called 3b; peptide 3b) [H-YvVf-NH2 (L-Tyr-D-Val-L-Val-D-Phe-NH2)] reads 93

The measured Ki associated with H-F[dV]V[dF]-OH (SMILES CC(C)[C@H](NC(=O)[C@H](NC(=O)[C@@H](N)Cc1ccccc1)C(C)C)C(=O)N[C@H](Cc1ccccc1)C(=O)O, Natural product of Penicillium sp; MST-MF667; made by Fmoc synthesis for the assays; also called 1a; peptide 1a) [bilaid A (H-FvVf-OH; L-Phe-D-Val-L-Val-D-Phe)] reads 3100

The measured Ki associated with H-F[dV]G[dY]-NH2 (SMILES CC(C)[C@@H](NC(=O)[C@@H](N)Cc1ccccc1)C(=O)NCC(=O)N[C@H](Cc1ccc(O)cc1)C(N)=O, also called 2d; peptide 2d) [H-FvGy-NH2 (L-Phe-D-Val-Gly-D-Tyr-NH2)] reads 1600

The measured Ki associated with YVVF (D-Val at 2; D-Phe at 4; free C-terminal acid, Natural product of Penicillium sp; MST-MF667; made by Fmoc synthesis; also called 3a; peptide 3a) [bilaid C (H-YvVf-OH; L-Tyr-D-Val-L-Val-D-Phe)] reads 210

Now take the following binder into account.
The measured Ki associated with FVVF (D-Val at 2; D-Phe at 4; C-terminal amide, also called 1e; peptide 1e) [H-FvVf-NH2 (L-Phe-D-Val-L-Val-D-Phe-NH2)] reads 750
